Reported activity values for a set of molecules
# STUDY TARGET: Sulfhydryl oxidase 1 (Homo sapiens) (UniProt O00391)
# Sequence (O00391 whole entry, looked up): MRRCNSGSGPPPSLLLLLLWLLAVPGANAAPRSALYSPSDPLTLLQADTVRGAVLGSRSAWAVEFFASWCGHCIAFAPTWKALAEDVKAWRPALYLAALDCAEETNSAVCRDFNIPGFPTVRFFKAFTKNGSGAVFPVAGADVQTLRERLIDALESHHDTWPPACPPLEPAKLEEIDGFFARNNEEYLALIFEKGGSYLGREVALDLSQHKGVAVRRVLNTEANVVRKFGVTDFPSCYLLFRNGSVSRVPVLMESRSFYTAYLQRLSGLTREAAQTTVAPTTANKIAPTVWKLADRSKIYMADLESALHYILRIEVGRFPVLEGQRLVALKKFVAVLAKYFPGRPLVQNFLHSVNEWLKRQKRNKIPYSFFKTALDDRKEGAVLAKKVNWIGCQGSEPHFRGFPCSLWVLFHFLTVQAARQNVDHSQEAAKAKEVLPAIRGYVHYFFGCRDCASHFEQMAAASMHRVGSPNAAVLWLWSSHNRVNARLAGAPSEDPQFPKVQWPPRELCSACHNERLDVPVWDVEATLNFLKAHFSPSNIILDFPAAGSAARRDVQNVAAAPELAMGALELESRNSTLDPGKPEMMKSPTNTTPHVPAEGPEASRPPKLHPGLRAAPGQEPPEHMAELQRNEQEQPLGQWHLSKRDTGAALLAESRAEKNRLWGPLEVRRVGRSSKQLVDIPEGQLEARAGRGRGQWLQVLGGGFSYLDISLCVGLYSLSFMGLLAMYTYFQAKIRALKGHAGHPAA
# METHOD NOTES: QSOX1 enzyme inhibitors, confirmation, biochemical, ROS-Glo luminescence, single concentration (AID 1347421);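 further: 0% = DMSO wells with enzyme and 100% = wells lacking QSOX1 enzyme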
# MEASUREMENT CONTEXT: recombinant hQSOX1, RNase A substrate, ROS-Glo H2O2 luminescence; at 10 µM
The full ranking holds about 1,500 compounds; the median of “activity” is about 2, and the lowest 2% start at about -18. Many of the other results were omitted from the sample, so the lowest values are more common in it than they were.
I only need the number, in %, no unit after it.

# annotated cases, reported activity shown
molecule=Cc1ccc(S(=O)(=O)NC2CCCCC2)cc1C(N)=O quantity_measured=activity value_reported=-20.3
molecule=CS(=O)(=O)N(CC(=O)N1CCCC1)Cc1ccc(F)cc1 quantity_measured=activity value_reported=-19.7
molecule=c1ccc(-c2nn3c(-c4ccco4)nnc3s2)nc1 quantity_measured=activity value_reported=-4.2
molecule=COc1cccc(-c2n[nH]c3c2CN(CCc2ccccc2)CC3)c1 quantity_measured=activity value_reported=5.1

Okay, now this molecule:
Q) GET /values?readout=activity&item= O=C(O)c1ccc(S(=O)(=O)N2CCSCC2)cc1
A) -3
